Molecular target: tetanus neurotoxin (TeNT), authentic tetanus holotoxin (Clostridium tetani, UniProt P04958 2-1315)
Sequence (P04958 2-457 limits assumed, chain 1 of 2): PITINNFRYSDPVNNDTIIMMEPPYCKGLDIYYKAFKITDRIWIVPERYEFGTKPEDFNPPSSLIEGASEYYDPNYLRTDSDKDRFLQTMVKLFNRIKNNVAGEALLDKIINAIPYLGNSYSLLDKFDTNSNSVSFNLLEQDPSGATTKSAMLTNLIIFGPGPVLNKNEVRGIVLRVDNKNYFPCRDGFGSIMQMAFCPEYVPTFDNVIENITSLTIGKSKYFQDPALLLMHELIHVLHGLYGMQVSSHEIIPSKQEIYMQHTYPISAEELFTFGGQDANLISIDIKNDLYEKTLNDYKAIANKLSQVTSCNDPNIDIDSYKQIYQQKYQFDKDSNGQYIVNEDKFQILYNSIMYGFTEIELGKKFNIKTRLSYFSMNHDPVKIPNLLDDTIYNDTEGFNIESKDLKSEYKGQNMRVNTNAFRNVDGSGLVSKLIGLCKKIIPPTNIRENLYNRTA
Sequence (P04958 458-1315 limits assumed, chain 2 of 2): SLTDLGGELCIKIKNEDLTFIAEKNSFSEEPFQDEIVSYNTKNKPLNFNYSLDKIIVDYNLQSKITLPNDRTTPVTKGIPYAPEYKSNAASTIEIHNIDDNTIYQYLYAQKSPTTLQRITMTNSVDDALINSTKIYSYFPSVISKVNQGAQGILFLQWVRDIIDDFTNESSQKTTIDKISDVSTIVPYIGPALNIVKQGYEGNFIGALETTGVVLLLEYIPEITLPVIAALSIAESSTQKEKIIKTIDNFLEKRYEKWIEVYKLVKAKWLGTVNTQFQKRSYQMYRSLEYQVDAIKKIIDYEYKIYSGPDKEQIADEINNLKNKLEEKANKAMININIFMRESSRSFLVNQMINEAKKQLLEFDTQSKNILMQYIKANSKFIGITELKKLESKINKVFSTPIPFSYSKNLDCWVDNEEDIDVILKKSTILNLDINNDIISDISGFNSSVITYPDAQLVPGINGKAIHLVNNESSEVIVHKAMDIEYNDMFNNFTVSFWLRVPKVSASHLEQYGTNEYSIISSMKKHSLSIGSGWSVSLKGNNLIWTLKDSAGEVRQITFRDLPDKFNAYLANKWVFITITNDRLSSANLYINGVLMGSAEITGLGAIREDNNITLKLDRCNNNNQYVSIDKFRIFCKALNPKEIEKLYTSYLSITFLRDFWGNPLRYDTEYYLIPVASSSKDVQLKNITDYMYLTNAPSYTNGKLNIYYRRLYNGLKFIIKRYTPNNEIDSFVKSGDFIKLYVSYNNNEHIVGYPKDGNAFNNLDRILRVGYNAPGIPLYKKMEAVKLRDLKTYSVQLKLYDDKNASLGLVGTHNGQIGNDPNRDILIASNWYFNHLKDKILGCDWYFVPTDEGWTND
Assay: ELISA, TeNT captured with cAb-TT2, biotinylated binder

binder: SVT06L (VHH) VHH: QVQLQESGGGSVQAGGSLRLSCTASELSYDDYTIAWFRRAAGEGRVEDGEGVASITKSYDRAYDNKINYGHSVKGRFTISRDNAKNTVYLQMTDLLPSDTAVYYCALDITPPGGVGASLTEGFLFDYWGQGTQVTVSS
maximal absorbance at 450 nm: 1.2
--
binder: SVT31L (VHH) VHH: QVQLQESGGGSVQAGGSLTLSCAASEFSYNDYTIAWFRRAAGKGRVEDGEGVASITKSYDRAYDNRIHYADSVKGRFTISRDNAKNTVYLQMTSLNPSDTAVYYCALDITPPGGIGASLTEGFLFDYWGQGTQVTVSS
maximal absorbance at 450 nm: 1.03
--
binder: SVT25L (VHH) VHH: QVQLQESGGGLVQAGGSLRLSCAASGRTISVYAMGWFRQAPGKQREFVAAISRSDNTYYTDSVKGRFTISRDNVKNTLYLQMNSLKPEETAVYYCAADPNLMYETKWKYRALEAWGQGTLVTVSS
maximal absorbance at 450 nm: 0.302
--
binder: SVT20L (VHH) VHH: QVQLQQSGGGLVQAGGSLRLSCAASGRTMSSYAMGWFRQAPGKQREFVAAISRSGGNTYYTDSVKGRFTISRDNAKNTLYLQMNSLKPEETAVYYCAADPNLMYESKWKYRALEAWGQGTLVTVSS
maximal absorbance at 450 nm: 0.535
--
binder: SVT08L (VHH) VHH: QVQLQESGGGSVQAGGSLRLSCTASEFSYNDYTIAWFRRAAGKGRVEDGEGVASITTSYDRAYDNRIHYGDSVKGRFTISRDNAKNTVYLQMTNLNPSDTAVYYCGLDITPPGGIGASLTEGFLFDYWGQGTQVTVSS
maximal absorbance at 450 nm: 1.2
